# ASSAYED_TARGET: PKC delta kinase (Homo sapiens, UniProt Q05655)
# Sequence (Q05655 whole entry): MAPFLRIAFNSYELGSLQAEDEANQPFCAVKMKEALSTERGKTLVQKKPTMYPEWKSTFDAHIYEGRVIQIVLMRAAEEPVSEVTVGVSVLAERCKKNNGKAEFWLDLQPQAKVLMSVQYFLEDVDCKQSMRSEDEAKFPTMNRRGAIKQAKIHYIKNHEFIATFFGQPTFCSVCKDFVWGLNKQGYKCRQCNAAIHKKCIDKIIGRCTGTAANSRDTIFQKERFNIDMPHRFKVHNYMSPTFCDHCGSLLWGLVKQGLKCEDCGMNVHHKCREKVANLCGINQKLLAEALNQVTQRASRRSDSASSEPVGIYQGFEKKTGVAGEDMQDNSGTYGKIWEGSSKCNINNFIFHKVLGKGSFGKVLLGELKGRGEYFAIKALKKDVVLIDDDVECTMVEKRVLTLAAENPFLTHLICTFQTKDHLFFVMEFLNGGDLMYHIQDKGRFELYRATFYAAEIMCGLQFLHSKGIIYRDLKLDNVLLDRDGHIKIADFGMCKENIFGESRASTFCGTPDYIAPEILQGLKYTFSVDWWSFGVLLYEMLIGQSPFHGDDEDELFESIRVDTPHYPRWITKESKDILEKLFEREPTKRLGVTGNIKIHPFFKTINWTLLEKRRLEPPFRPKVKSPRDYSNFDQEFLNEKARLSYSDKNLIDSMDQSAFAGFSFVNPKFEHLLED
# TEST_NAME: PKC delta kinase inhibition, coupled-enzyme (NADH absorbance) assay, Ki
# Type: biochemical
# RUN_PARAMETERS: 150 μM ATP, 46 nM PKC delta kinase, 30° C.; read-out: Ki PKC delta
QUANTITY: Ki

CC(C)(C)[C@H]1CN(c2ccc(C(F)(F)F)c(-c3n[nH]c4ncccc34)n2)CCN1 : > 2 µM
CCOC[C@H]1CN(c2cccc(-c3n[nH]c4ncccc34)n2)CCN1 : > 1.25 µM
CC(C)C(C)(O)C1CN(c2ccc(F)c(-c3n[nH]c4ncccc34)n2)CCN1 (stereo not drawn) [Compound 179] : < 0.5 µM

Record request: Ki value, item CC(C)CC1(O)CCCN(c2ccc(F)c(-c3n[nH]c4ncccc34)n2)C1 (stereo not drawn)
> 1.25 µM

Another compound to check: CC(C)CC1(CN)CN(c2ccc(C(F)(F)F)c(-c3n[nH]c4ncccc34)n2)C1
> 1.25 µM

And CC(C)C[C@H]1CC(F)(c2cccc(-c3n[nH]c4ncccc34)n2)CCN1 (stereo partly drawn) ?
< 2.8 µM

* * *

pKi: −log10 of the molar value.
Quick record: pKi, PKC alpha kinase (Homo sapiens, UniProt P17252).

// solved cases for pKi follow
CC(C)C[C@H]1CN(c2cccc(-c3n[nH]c4ncccc34)n2)CC[C@H]1N : > 6.30
Fc1ccc(N2CCN3CCCC3C2)nc1-c1n[nH]c2ncccc12 (stereo not shown) : < 5.90
FC(F)(F)c1ccnc2[nH]nc(-c3cccc(N4CCNCC4)n3)c12 : < 5.90

Turning now to a further compound:
Record lookup: for PKC alpha kinase (Homo sapiens, UniProt P17252), what pKi belongs to NC1CCCN(c2ccc(F)c(-c3n[nH]c4ncccc34)n2)C1 (stereo not shown) ?
< 5.90

* * *

# maps each entry to its Ki
# ASSAYED_TARGET: PKC delta kinase (Homo sapiens)
# TEST_NAME: PKC delta kinase inhibition, coupled-enzyme (NADH absorbance) assay, Ki
# Assay type: biochemical
# RUN_PARAMETERS: 150 μM ATP, 46 nM PKC delta kinase, 30° C.; read-out: Ki PKC delta

Recorded Ki, per entry:
CC(C)(O)CC1CN(c2cccc(-c3n[nH]c4ncccc34)n2)CCN1 (stereo not drawn) [Compound 36] : < 500 nM
CC(C)(O)[C@@H]1CN(c2cccc(-c3n[nH]c4ncccc34)n2)CCN1 [Compound 176] : < 50 nM

Sample Fc1ccc(N2CC3CCNCC3C2)nc1-c1n[nH]c2ncccc12 (stereo not drawn) [Compound 309] — what was its Ki?
> 1250 nM

* * *

# ASSAYED_TARGET: PKC delta kinase (Homo sapiens, UniProt Q05655)
# TEST_NAME: PKC delta kinase inhibition, coupled-enzyme (NADH absorbance) assay, Ki
# Type: biochemical
# RUN_PARAMETERS: 150 μM ATP, 46 nM PKC delta kinase, 30° C.; read-out: Ki PKC delta
pKi: −log10 of the molar value.
QUANTITY: pKi

OCCC1CCCCN1c1ccc(C(F)(F)F)c(-c2n[nH]c3ncccc23)n1 (stereo not drawn) : < 5.90

Can you look up the measured pKi of CC(C)C(C)(O)C1CN(c2cccc(-c3n[nH]c4ncccc34)n2)CCN1 (stereo not drawn) for me?
> 7.30

Try this molecule next: CCC1(CC(C)C)CN(c2ccc(C(F)(F)F)c(-c3n[nH]c4ncccc34)n2)CCC1N (stereo not drawn)
> 6.30

One more molecule: CC(C)C[C@H]1CN(c2cccc(-c3n[nH]c4ncccc34)n2)C[C@H](C)N1
< 5.70

Follow-up item: Fc1ccc(N2CCC(C(F)(F)F)CC2)nc1-c1n[nH]c2ncccc12
< 5.90

Would you kindly repeat that for Fc1ccc(C2CCNCC2)nc1-c1n[nH]c2ncccc12 ?
< 5.90

What would you report for COC(C)(C)C1CN(c2cccc(-c3n[nH]c4ncccc34)n2)CCN1 (stereo not drawn) ?
> 6.30

Continue with C1=C(c2cccc(-c3n[nH]c4ncccc34)n2)CCNC1
< 5.90

Please do the same for NC1(C2CCCN(c3ccc(F)c(-c4n[nH]c5ncccc45)n3)C2)CCC1 (stereo not drawn) as well.
> 7.30
